Can you tell me SGOT Increase - Index Value for the items I'm about to list?
system: Hepatotoxicity; assay: FDA HLAED, serum glutamic oxaloacetic transaminase (SGOT) increase; conditions: human

CNCC(O)c1ccc(OC(=O)C(C)(C)C)c(OC(=O)C(C)(C)C)c1 (stereo not drawn) [DIPIVEFRIN]; 0

Quick request: SGOT Increase - Index Value for each listed item, please.
1. C[C@@H]1C[C@H]2[C@@H]3C[C@H](F)C4=CC(=O)C=C[C@]4(C)[C@@]3(F)[C@@H](O)C[C@]2(C)[C@@]1(O)C(=O)SCF [FLUTICASONE]
2. C=C1CC[C@@]2(O)[C@H]3Cc4ccc(O)c5c4[C@@]2(CCN3CC2CC2)[C@H]1O5
3. CN(C/C=C/c1ccccc1)Cc1cccc2ccccc12 [NAFTIFINE]
4. CC(C(=O)O)c1ccc(-c2ccccc2)c(F)c1 (stereo not drawn) [FLURBIPROFEN]

1. 0.8
2. 0
3. 0
4. 0.9

Your task in this section: give SGOT Increase - Index Value for each listed record.
1. O=S(=O)([O-])CCS.[Na+] [MESNA]
2. CN(Cc1cnc2nc(N)nc(N)c2n1)c1ccc(C(=O)N[C@@H](CCC(=O)O)C(=O)O)cc1 [METHOTREXATE]

1. 5
2. 5.3

Report SGOT Increase - Index Value for every entry below.
1. CC(=O)O[C@H]1C(=O)[C@@]2(C)[C@H]([C@H](OC(=O)c3ccccc3)[C@]3(O)C[C@H](OC(=O)[C@H](O)[C@@H](NC(=O)c4ccccc4)c4ccccc4)C(C)=C1C3(C)C)[C@]1(OC(C)=O)CO[C@@H]1C[C@@H]2O [PACLITAXEL]
2. COCCc1ccc(OCC(O)CNC(C)C)cc1 (stereo not drawn) [METOPROLOL]
3. CCN1CCN(C(=O)N[C@@H](C(=O)N[C@@H]2C(=O)N3[C@@H]2SC(C)(C)[C@@H]3C(=O)O)c2ccccc2)C(=O)C1=O [PIPERACILLIN]
4. CC(C)(C)NCC(O)COc1cccc2c1CCC(=O)N2 (stereo not drawn) [CARTEOLOL]
5. NCC1(CC(=O)O)CCCCC1 [GABAPENTIN]
6. CCN[C@H]1C[C@H](C)S(=O)(=O)c2sc(S(N)(=O)=O)cc21 [DORZOLAMIDE]
7. Cc1ccc(-c2nc3ccc(C)cn3c2CC(=O)N(C)C)cc1 [ZOLPIDEM]

[2.5, 0.5, 0.3, 0.5, 0.8, 0.2, 3.8]

Give measured SGOT Increase - Index Value for every item shown.
1. COc1ccc2cc(CCC(C)=O)ccc2c1 [NABUMETONE]
2. OC[C@H]1O[C@@H](n2cnc3c2NC=NC[C@H]3O)C[C@@H]1O [PENTOSTATIN]
3. CC(C(=O)O)c1cccc(C(=O)c2ccccc2)c1 (stereo not drawn) [KETOPROFEN]
4. O=C1CN=C(c2ccccc2)c2cc(Cl)ccc2N1CC1CC1 [PRAZEPAM]

1. 0.6
2. 0
3. 0.6
4. 0.3

* * *

Kindly supply the reported LDH Increase - Index Value values for the records listed here.
tested on: Hepatotoxicity; test: FDA HLAED, lactate dehydrogenase (LDH) increase; conditions: human
One number for each entry.

COc1ccc(CCN2CCC(Nc3nc4ccccc4n3Cc3ccc(F)cc3)CC2)cc1; 0.4

Given COc1ccc(-c2ccc3cc(C(=O)O)ccc3c2)cc1C12CC3CC(CC(C3)C1)C2 , state its recorded LDH Increase - Index Value.
0
